- Assay: chemical genetic growth profiling, strain panel (AID 1159580);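 further: tested at 20 µM; growth read once vehicle control cultures reached saturation at 30 °C; lower values mean less growth of the strain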
- Conditions Used: S. cerevisiae deletion strains, growth OD, locus YOR070C, strain gyp1
Among all 5,500 compounds or so, about 2,000 (36%) were called active. Not shown: some 18% with an inconclusive outcome. No stated cut-off is given here; in the data, active means normalized growth mostly below about 0.91 (no sharp cut-off); inconclusive means no clear call, values can overlap the other calls; inactive means mostly above about 0.92. This is one part of the list.
Respond with a class label; see active, inactive

Per the assay record, what outcome was assigned to COC(=O)C1=COC(OC2OC(CO)C(O)C(O)C2O)C2C(C)CC(=O)C12 (configuration not stated) ?
inactive

Per the assay record, what outcome was assigned to COc1cc2nc(N(C)CCCNC(=O)C3CCCO3)nc(N)c2cc1OC (configuration not stated) ?
inactive

Per the assay record, what outcome was assigned to COc1ccc2c(c1)OC1(O)COc3cc(OC)c(OC)cc3C1=C2 (configuration not stated) ?
inactive

Per the assay record, what outcome was assigned to COc1ccc(OC)c(C(O)CNC(=O)CN)c1 (configuration not stated) ?
inactive

Per the assay record, what outcome was assigned to Nc1nc(=S)c2[nH]cnc2[nH]1 ?
inactive

Per the assay record, what outcome was assigned to CC#CC1(O)CCC2C3CCC4=CC(=O)CCC4=C3C(c3ccc(N(C)C)cc3)CC21C (configuration not stated) ?
inactive

Per the assay record, what outcome was assigned to O=C1C(Cl)=C(Cl)C(=O)C(Cl)=C1Cl ?
active

Per the assay record, what outcome was assigned to COc1ccc(-c2coc3cc(O)ccc3c2=O)c(O)c1O ?
inactive

Per the assay record, what outcome was assigned to CO/N=C1/CN(c2nc3c(cc2F)c(=O)c(C(=O)O)cn3C2CC2)CC1CN (configuration not stated) ?
inactive

Per the assay record, what outcome was assigned to Clc1ccc(C(c2ccc(Cl)cc2)C(Cl)(Cl)Cl)cc1 ?
inactive

Per the assay record, what outcome was assigned to CC1(C)S[C@@H]2[C@H](NC(=O)[C@H](N)c3ccccc3)C(=O)N2[C@H]1C(=O)O ?
inactive

Per the assay record, what outcome was assigned to COc1ccc(-c2coc3cc(O)ccc3c2=O)c(OC)c1O ?
inactive

Per the assay record, what outcome was assigned to COc1c(N2CCNC(C)C2)c(F)cc2c(=O)c(C(=O)O)cn(C3CC3)c12 (configuration not stated) ?
inactive

Per the assay record, what outcome was assigned to COc1ccc(C(CN(C)C)C2(O)CCCCC2)cc1 (configuration not stated) ?
inactive

Per the assay record, what outcome was assigned to CN(C)CCCC1(c2ccc(F)cc2)OCc2cc(C#N)ccc21 (configuration not stated) ?
inactive

Per the assay record, what outcome was assigned to c1ccc2c(c1)CCCC2C1=NCCN1 (configuration not stated) ?
inactive

Per the assay record, what outcome was assigned to O=c1c(-c2ccc(O)cc2)coc2cc(O)ccc12 ?
inactive

Per the assay record, what outcome was assigned to Cc1[nH]c2ccccc2c1CN(C)C ?
inactive

Per the assay record, what outcome was assigned to O=S(=O)(O)c1cc(N=C=S)ccc1/C=C/c1ccc(N=C=S)cc1S(=O)(=O)O ?
inactive

Per the assay record, what outcome was assigned to CC1CCc2cc(F)cc3c(=O)c(C(=O)O)cn1c23 (configuration not stated) ?
inactive

Per the assay record, what outcome was assigned to COc1ccc(-c2coc3cc(O)ccc3c2=O)cc1 ?
inactive

Per the assay record, what outcome was assigned to CC[C@@H]1C=C/C=C/C[C@H](C)[C@@H](O)[C@](C)(O)C(=O)[C@H](C)[C@@H](O)[C@H](C)C(=O)[C@H](C)[C@@H](O)[C@H](C)/C=C/C(=O)O[C@H]2[C@@H](C)[C@@H](CC1)O[C@@]1(CC[C@@H](C)[C@@H](C[C@H](C)O)O1)[C@@H]2C ?
inactive
